Biological target: T1, IL-18Rα/β heterodimer (Fc fused human IL-18Rα mixed and pre-incubated with Fc fused human IL-18Rβ) (human, UniProt Q13478 19-329; O95256 20-356, limits assumed)
T1 construct: 6 µg/mL of each receptor mixed and pre-incubated 30 min before capture on anti-human IgG; also called alpha/beta heterodimer IL-18 receptor; not shown: Fc part
T1 sequence (looked up) 1: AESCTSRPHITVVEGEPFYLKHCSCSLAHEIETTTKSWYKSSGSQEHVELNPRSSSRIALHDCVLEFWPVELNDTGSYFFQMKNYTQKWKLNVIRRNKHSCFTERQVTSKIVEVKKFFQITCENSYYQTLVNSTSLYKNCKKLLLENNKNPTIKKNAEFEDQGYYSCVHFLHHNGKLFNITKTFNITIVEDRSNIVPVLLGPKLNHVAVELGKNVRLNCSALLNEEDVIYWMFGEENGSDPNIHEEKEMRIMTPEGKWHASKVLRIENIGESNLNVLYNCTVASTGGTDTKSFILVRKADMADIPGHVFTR
T1 sequence (looked up) 2: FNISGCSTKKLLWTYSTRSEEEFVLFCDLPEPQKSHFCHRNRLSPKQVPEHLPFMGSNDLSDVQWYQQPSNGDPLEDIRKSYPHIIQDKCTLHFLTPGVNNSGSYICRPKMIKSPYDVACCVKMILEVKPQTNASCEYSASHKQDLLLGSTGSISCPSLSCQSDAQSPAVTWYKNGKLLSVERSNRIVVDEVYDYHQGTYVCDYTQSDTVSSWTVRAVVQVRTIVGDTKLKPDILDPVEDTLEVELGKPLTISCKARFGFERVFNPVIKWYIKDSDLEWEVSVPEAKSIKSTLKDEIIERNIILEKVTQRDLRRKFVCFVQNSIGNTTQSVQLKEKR
Test: SPR, Fc-IL-18Rα/Fc-IL-18Rβ mix captured, heterogeneous ligand model
recorded_metric: kon (M⁻¹ s⁻¹)
Enter your answer as a number in M⁻¹ s⁻¹; do not include the unit.

Look up kon for this binder: Modified IL-18 polypeptide of SEQ ID NO: 22 (E06K, K53A, C38S, C68S, C76S, C127S, K70C) (ligand) YFGKLKSKLSVIRNLNDQVLFIDQGNRPLFEDMTDSDSRDNAPRTIFIISMYADSQPRGMAVTISVKSECISTLSSENKIISFKEMNPPDNIKDTKSDIIFFQRSVPGHDNKMQFESSSYEGYFLASEKERDLFKLILKKEDELGDRSIMFTVQNED
15800

Look up kon for this binder: Modified IL-18 polypeptide of SEQ ID NO: 71 (E6K, C38S, K53A) (ligand) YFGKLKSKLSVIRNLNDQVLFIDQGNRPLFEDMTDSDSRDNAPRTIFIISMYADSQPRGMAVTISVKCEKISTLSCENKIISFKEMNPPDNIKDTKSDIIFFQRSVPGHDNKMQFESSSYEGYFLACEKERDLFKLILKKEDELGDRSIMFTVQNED
279000

// provenance: patent US20220056091A1
